- TEST NAME: NCI Yeast Anticancer Drug Screen. Data for the rad50 strain (AID 155)
- ASSAY CONDITIONS: S. cerevisiae rad50 strain growth inhibition; at 50.0 µM
- Experimental: Growth inhibition of yeast strains with defined genetic alterations is measured as a screen for potential anti-cancer activity. Selected strains with alterations in DNA damage repair or cell cycle control were exposed to compounds and growth inhibition was measured relative to vehicle treated controls. The strain used in this assay is rad50
This is part of a sample that, as a whole, favours compounds with a hit. Of some 79,000 tested, about 15% had one in any assay. Calls of active or inactive are those of the source. No stated cut-off is given here; in the data, active means growth inhibition above about 70%; inactive means the rest.
Classes used: active, inactive

# MOLECULE, CATEGORY
rows = [
    ("[C-]#[O+].[C-]#[O+].[Mo].c1ccc([PH+](CC[PH+](c2ccccc2)c2ccccc2)c2ccccc2)cc1.c1ccc([PH+](CC[PH+](c2ccccc2)c2ccccc2)c2ccccc2)cc1", "inactive"),
    ("CCCC(C)OP(=O)(OCC)OCC (stereo unspecified)", "inactive"),
    ("CN(N=O)c1ccc([N+](=O)[O-])cc1", "inactive"),
    ("CC1=NNC(=O)C1(Br)Br", "inactive"),
    ("CCCCCCCCCCCCCC(=O)[O][Hg][c]1ccccc1", "active"),
    ("CC1(CCl)COP(=O)(NN)OC1 (stereo unspecified)", "inactive"),
    ("CCO[C@@H]([CH2][Hg][Cl])[C@](C)([CH2][Hg][Cl])OCC", "active"),
    ("CCC[CH2][Sn]([CH2]CCC)([CH2]CCC)[CH2]CC(=O)OC", "active"),
    ("CC12C(=O)C(C)(C(c3ccccc3)=C1c1ccccc1)C1(C#N)NC21C#N (stereo unspecified)", "inactive"),
    ("CC(C)C12C=C3CCC4C(C)(C(=O)O)CCCC4(C)C3(CC1)OO2 (stereo unspecified)", "active"),
    ("CC1CCN(CCC(=O)CC(c2ccccc2)c2c(O)c3ccccc3oc2=O)CC1 (stereo unspecified)", "active"),
    ("CC1=CC(C(=O)O)P(C)(=O)C1 (stereo unspecified)", "inactive"),
    ("O=C(O)C(Cl)(Cl)Cl", "inactive"),
    ("COc1cccc(N2C(=O)C3C(C2=O)C2(Cl)C(Cl)=C(Cl)C3(Cl)C2(Cl)Cl)c1 (stereo unspecified)", "inactive"),
    ("C[N+]1([O-])[C@H]2CC(OC(=O)[C@H](CO)c3ccccc3)C[C@H]1[C@H]1O[C@H]12 (stereo partly specified)", "inactive"),
    ("NC(Cc1cnc[nH]1)C(=O)NC(Cc1cnc[nH]1)C(=O)O (stereo unspecified)", "inactive"),
    ("CC1(CCN)COC(c2ccccc2)(c2ccccc2)OC1 (tested in a mixture with another compound)", "inactive"),
    ("CCC[N+](CCC)(CCC)CCC.N#CC(C#N)=C([SH2+])[SH2+].N#CC(C#N)=C([SH2+])[SH2+].N#CC(C#N)=C([SH2+])[SH2+].[Cr+3]", "inactive"),
    ("CC1(C)OCC(C2NC2C2COC(C)(C)O2)O1 (stereo unspecified)", "inactive"),
    ("CC(O)C[As](=O)(O)c1ccccc1Cl (stereo unspecified)", "inactive"),
    ("Cc1cc(NC(=O)CCc2ccc(N3C(N)=NC(N)=NC3(C)C)cc2Cl)ccc1S(=O)(=O)F", "active"),
    ("CCCCC[N+]1=Cc2cc(O)c(O)cc2CC1", "inactive"),
    ("CN(C)C(=O)Oc1c(-c2ccccc2)c(=O)n2c3ccccc3n3c(=O)n(C)c(=O)c1c23", "inactive"),
    ("Oc1cc(Br)c(O)c(Br)c1", "inactive"),
    ("CC(=O)O[C@@H]1[C@@H](O)[C@H]2O[C@@H]3C=C(C)C(=O)[C@@H](O)[C@]3(CO)[C@]1(C)[C@]21CO1", "inactive"),
    ("O=[N+]([O-])c1ccc(/C=C/c2ccc(Cl)c(S(=O)(=O)F)c2)c(Cl)c1", "inactive"),
    ("c1cc[c]([Pb]([S]c2nc3ccccc3[nH]2)([c]2ccccc2)[c]2ccccc2)cc1", "active"),
    ("O=C(O)C(F)(F)F.[Ag]", "active"),
    ("O=c1cccc2n1CC1CNCC2C1 (stereo unspecified)", "inactive"),
    ("CC(=S)N=Cc1c(O)[nH]c(=O)[nH]c1=O", "inactive"),
    ("CCOP(=O)(OCC)/C(C#N)=C/c1ncc[nH]1", "inactive"),
    ("CCCC(Br)C(=O)OCC (stereo unspecified)", "inactive"),
    ("CC1(C)N=C(N)N=C(N)N1c1ccc(CCc2ccc(S(=O)(=O)F)cc2)cc1", "inactive"),
    ("Cc1nc(N)nc(N)c1CCCOc1ccc(NC(=O)c2cccc(S(=O)(=O)F)c2)cc1", "inactive"),
    ("COC1=C(OC)C23CCc4ccc(OC)c(O)c4C2(CCN3)CC1=O (stereo unspecified)", "inactive"),
    ("COc1ccccc1/C=C/[N+](=O)[O-]", "active"),
    ("O=P(O)(O)CCCCP(=O)(O)O.[Zn+2]", "inactive"),
    ("COc1ccc2c(ccc3oc([N+](=O)[O-])cc32)c1", "active"),
    ("CC1(C)[C@@H]2CC[C@@]1(C)CN(CCC[N+](C)(C)C)C2", "inactive"),
    ("COC(=O)[C@]1(C)CCC[C@]2(C)[C@H]3CC4OO[C@@]3(CC[C@H]21)[C@H]1O[C@@]41C(C)C", "active"),
    ("CCCCNCCc1cccnc1", "inactive"),
]
